B1: tRNA (parent)
chain: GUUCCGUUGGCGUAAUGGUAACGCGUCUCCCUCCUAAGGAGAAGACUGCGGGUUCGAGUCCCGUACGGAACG

variants of: B1; assay: yeast fitness relative to wild type (ratio to wild type); higher = fitter; tRNA-Arg(CCU), competitive growth, 37 C, YPD
Fewer inactive variants are shown than the library holds.
ASSAY METRIC: yeast fitness
# respond with the number and nothing more

Please fill in: yeast fitness reported for A14G A42U = 0.873

Please fill in: yeast fitness reported for C4G G68A = 0.904

Please fill in: yeast fitness reported for C55A C62A = 0.518

Please fill in: yeast fitness reported for U13G U54C G56A = 0.563

Please fill in: yeast fitness reported for U47A A65C = 0.82

Please fill in: yeast fitness reported for C24G G52A = 0.566

Please fill in: yeast fitness reported for C61A G67A = 0.582

Please fill in: yeast fitness reported for A45G G51A G67A = 0.601

Please fill in: yeast fitness reported for G6C A42U C49U = 0.595
